Values from patent US11912668B2

System: CCRF-CEM leukemia cells
Assay: CCRF-CEM ASNase cell proliferation assay, phenotypic assay for cellular inhibition of GCN2
Format: cell-based
Settings: Homo sapiens; ASNase treated CCRF-CEM cells, 1 mU/mL ASNase, 72 h
Experimental: CCRF-CEM leukemia cells (catalog #CCL-116) were obtained from the American Type Culture Collect (ATTC, Manassas, VA). […] Plates were read on a Synergy2 or equivalent reader (Biotek, Winooski VT) using an excitation of 540 nm and an emission of 600 nm. Data was analyzed using GraphPad Prism software (GraphPad, San Diego, CA) to calculate IC50 values.
pIC50: −log10 of the molar value.
Quantity Measured: pIC50

The following molecules have reported results that may help.
CNc1ncc2cc(-c3cc(F)cc(NS(=O)(=O)c4cc(Cl)cnc4OC)c3)c(C)nc2n1 [Example 65] ... 6.30 to 7.00
CNc1cc2nc(C)c(-c3cc(F)cc(NS(=O)(=O)c4cc(Cl)cc(CO)c4Cl)c3)cc2cn1 [Example 25] ... ≥ 7.00
CNc1cc2nc(C)c(-c3cc(NS(=O)(=O)c4cc(Cl)cc(CO)c4Cl)c(F)cc3F)cc2cn1 [Example 22] ... ≥ 7.00
CNc1ncc2cc(-c3cccc(NS(=O)(=O)c4cc(F)cc(CO)c4F)c3F)c(NC)nc2n1 [Example 178] ... ≥ 7.00
CNc1cc2nc(C)c(-c3cccc(NS(=O)(=O)c4cc(Cl)cnc4NC)c3F)cc2cn1 [Example 78] ... ≥ 7.00

Hi, could you look up pIC50 for each item in my list?
1. CNc1ncc2cc(-c3cc(NS(=O)(=O)c4cc(Cl)cnc4OC)ccc3F)c(C)nc2n1 [Example 38]
2. CNc1ncc2cc(-c3cccc(NS(=O)(=O)c4cc(Cl)cc(C(=O)OC)c4Cl)c3F)c(NC)nc2n1 [Example 102]
3. CNc1ncc2cc(-c3cccc(NS(=O)(=O)c4cc(Cl)cnc4OC)c3F)c(N)nc2n1 [Example 61]

Marked response:
6.30 to 7.00
≥ 7.00
≥ 7.00

* * *

Biological target: PERK oligomers in HEK-293 cells (Homo sapiens (Human))
Sequence (Q9NZJ5 30-1116): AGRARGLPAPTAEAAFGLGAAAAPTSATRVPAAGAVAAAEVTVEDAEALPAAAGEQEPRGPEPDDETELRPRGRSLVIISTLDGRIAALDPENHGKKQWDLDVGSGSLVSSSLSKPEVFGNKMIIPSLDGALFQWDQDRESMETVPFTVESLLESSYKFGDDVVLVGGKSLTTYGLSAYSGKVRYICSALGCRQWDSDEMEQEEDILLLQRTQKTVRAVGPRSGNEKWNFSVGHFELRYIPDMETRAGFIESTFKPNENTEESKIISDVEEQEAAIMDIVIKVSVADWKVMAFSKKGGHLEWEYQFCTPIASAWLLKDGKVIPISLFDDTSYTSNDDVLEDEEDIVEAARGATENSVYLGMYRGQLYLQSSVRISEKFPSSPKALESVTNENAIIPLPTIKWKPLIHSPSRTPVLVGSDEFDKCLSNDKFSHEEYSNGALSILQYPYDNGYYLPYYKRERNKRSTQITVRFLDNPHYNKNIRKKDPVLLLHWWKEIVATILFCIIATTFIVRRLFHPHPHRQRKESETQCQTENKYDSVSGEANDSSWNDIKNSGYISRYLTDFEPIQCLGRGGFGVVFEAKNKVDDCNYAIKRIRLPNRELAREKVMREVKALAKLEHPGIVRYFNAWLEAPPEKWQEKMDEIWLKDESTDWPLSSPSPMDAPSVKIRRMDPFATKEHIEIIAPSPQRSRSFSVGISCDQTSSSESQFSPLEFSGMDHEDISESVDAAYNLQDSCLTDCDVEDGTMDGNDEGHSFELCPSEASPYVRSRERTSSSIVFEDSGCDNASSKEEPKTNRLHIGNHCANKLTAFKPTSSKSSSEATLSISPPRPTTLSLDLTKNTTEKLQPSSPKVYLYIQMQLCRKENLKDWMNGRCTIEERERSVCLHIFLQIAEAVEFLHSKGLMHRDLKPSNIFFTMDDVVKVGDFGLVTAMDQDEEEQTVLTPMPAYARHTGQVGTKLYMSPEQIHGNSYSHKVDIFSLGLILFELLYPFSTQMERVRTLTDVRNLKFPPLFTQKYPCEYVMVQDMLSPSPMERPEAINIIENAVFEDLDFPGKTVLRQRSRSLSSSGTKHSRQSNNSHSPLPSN
Sequence (Q9NZJ5 30-1116): as above
Assay: Detection of PERK oligomerization using NanoBRET
Details: read-out: EC50 of stimulation of the formation of PERK oligomers
Quantity Measured: pEC50
Numbers only, as −log10 of the molar value.

Exam item: Check the records and state pEC50 for `CNc1ncc2cc(-c3cccc(NS(=O)(=O)c4cc(Cl)cnc4OC)c3F)c(NC)nc2n1`
Marked response: 6.57

* * *

Target: GCN2 kinase (Homo sapiens (Human))
Sequence (Q9P2K8 whole entry): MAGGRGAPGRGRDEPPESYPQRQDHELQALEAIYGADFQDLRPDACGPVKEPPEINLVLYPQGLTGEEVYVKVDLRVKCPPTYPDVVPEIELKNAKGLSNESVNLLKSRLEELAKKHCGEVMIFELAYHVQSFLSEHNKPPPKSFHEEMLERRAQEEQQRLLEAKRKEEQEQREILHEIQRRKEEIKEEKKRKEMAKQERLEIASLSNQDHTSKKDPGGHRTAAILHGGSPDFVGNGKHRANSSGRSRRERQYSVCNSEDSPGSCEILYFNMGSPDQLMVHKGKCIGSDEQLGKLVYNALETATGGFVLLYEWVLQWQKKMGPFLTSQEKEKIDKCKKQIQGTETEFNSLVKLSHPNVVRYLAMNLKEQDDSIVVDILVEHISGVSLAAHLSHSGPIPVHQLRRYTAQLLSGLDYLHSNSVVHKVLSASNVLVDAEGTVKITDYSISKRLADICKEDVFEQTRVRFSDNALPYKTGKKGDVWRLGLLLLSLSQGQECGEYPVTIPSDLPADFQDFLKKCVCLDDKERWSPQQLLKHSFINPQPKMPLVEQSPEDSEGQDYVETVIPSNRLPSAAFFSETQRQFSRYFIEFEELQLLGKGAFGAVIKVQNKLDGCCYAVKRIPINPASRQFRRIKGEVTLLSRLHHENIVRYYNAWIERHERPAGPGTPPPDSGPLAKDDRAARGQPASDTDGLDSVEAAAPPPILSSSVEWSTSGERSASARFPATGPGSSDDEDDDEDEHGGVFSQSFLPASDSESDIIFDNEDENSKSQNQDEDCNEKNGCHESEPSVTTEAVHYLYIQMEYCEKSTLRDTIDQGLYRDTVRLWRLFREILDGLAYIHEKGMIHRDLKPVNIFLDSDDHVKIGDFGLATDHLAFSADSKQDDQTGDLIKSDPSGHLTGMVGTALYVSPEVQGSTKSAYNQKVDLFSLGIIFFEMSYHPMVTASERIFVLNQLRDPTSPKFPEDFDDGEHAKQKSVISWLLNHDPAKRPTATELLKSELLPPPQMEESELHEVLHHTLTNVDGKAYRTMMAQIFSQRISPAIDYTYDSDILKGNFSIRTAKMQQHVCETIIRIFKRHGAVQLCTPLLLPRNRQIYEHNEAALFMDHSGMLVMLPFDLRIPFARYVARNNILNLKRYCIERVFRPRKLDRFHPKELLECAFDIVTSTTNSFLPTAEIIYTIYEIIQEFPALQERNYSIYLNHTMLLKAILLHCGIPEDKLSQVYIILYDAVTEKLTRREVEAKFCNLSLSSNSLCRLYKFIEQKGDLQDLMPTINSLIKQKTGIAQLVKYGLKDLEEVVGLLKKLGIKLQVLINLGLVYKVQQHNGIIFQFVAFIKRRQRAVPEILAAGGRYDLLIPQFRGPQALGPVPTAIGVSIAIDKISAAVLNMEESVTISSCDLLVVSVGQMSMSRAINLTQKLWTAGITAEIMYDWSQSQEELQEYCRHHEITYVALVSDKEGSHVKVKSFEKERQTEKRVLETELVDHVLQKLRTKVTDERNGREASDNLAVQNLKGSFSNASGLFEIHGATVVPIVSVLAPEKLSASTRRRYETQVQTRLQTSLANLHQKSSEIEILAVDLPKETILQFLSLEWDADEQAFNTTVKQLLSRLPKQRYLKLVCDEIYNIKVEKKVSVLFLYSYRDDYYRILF
Experiment: Biochemical assay for GCN2 (TR-FRET kinase activity assay)
Conditions: 1 mM ATP, 3-hour incubation
Procedure: Activity of GCN2 kinase was determined using a TR-FRET kinase activity assay (e.g. Riddle et al. Analytical Biochemistry (2006) 356(1) 108-116). […] Inhibition of GCN2 was measured by adding serial diluted test compound (final assay concentration of 0.5% DMSO) followed by a 3-hour incubation. […] After a 60 min incubation at room temperature, TR-FRET was monitored using an excitation wavelength of 340 nm and emission wavelengths of 490 nm and 520 nm. […]
Could you please report measured IC50 for the items listed next?

CNc1ncc2cc(-c3cc(NS(=O)(=O)c4cc(Cl)cnc4OC)c(F)cc3C)c(NC)nc2n1 ... 500 to 1000 nM
COc1ncc(Cl)cc1S(=O)(=O)Nc1cc(F)cc(-c2cc3cnc(N)nc3nc2N)c1 ... ≤ 100 nM
CNc1ncc2cc(-c3cccc(NS(=O)(=O)c4cc(Cl)cnc4OC)c3F)c(C)nc2n1 ... ≤ 100 nM
CNc1ncc2cc(-c3c(F)ccc(NS(=O)(=O)c4cc(Cl)cnc4OC)c3F)c(NC)nc2n1 ... 100 to 500 nM
COc1ncc(Cl)cc1S(=O)(=O)Nc1cc(F)cc(-c2cnc3nc(N)ncc3c2)c1 ... 1000 to 10000 nM
CNc1ncc2cc(-c3cccc(NS(=O)(=O)c4ccc(OC)c(Cl)c4)c3F)ccc2n1 ... 1000 to 10000 nM
CNc1ncc2cc(-c3cccc(NS(=O)(=O)c4cc(F)cc(CO)c4Cl)c3F)c(NC)nc2n1 ... ≤ 100 nM

Continue with the next compound.
Exam item: Check the records and state IC50 for `CNc1ncc2cc(-c3cccc(NS(=O)(=O)c4cc(Cl)cnc4OC)c3)c(NC)nc2n1`
Marked response: ≤ 100 nM

* * *

Target: GCN2 kinase (Homo sapiens (Human))
Quantity Measured: IC50

CNc1cc2nc(C)c(-c3cc(F)cc(NS(=O)(=O)c4cc(Cl)cc(CO)c4Cl)c3)cc2cn1 ... ≤ 100 nM
CNc1cc2ncc(-c3cccc(NS(=O)(=O)c4cc(Cl)cnc4OC)c3F)cc2cn1 ... 100 to 500 nM
CNc1cc2nc(C)c(-c3cc(NS(=O)(=O)c4cc(Cl)cnc4OC)cc(F)c3F)cc2cn1 ... ≤ 100 nM
CNc1ncc2cc(-c3ccc(F)c(NS(=O)(=O)c4cc(Cl)cnc4OC)c3F)c(C)nc2n1 ... 100 to 500 nM

Hi, could you look up IC50 for each item in my list?
1. CNc1ncc2cc(-c3cc(NS(=O)(=O)c4cc(Cl)cnc4OC)ccc3F)ccc2n1
2. COc1ncc(Cl)cc1S(=O)(=O)Nc1ccc(C)c(-c2ccc3cc(N)ncc3c2)c1

Marked response:
500 to 1000 nM
1000 to 10000 nM

Hi, could you look up IC50 for each item in my list?
1. CNc1ncc2cc(-c3cccc(NS(=O)(=O)c4cc(Cl)cnc4OC)c3F)c(OC)cc2n1
2. CNc1ncc2cc(-c3cccc(NS(=O)(=O)c4cc(Cl)cnc4NC4CC4)c3F)c(NC)nc2n1
3. CNc1nc2nc(Nc3cnn(C)c3)ncc2cc1-c1cccc(NS(=O)(=O)c2cc(Cl)cnc2OC)c1F
4. COc1cc(OC)c(S(=O)(=O)Nc2cccc(-c3cc4cnc(N)nc4nc3OC)c2F)cc1Cl
5. CNc1ncc2cc(-c3cccc(NS(=O)(=O)c4cc(Cl)ccc4OC)c3F)c(NC)nc2n1
6. CNc1ncc2cc(-c3cc(NS(=O)(=O)c4cc(Cl)cnc4OC)cc(F)c3C)c(C)nc2n1
7. CNc1ncc2cc(-c3cccc(NS(=O)(=O)c4cc(Cl)cnc4NC)c3F)ccc2n1
8. CNc1ncc2cc(-c3cccc(NS(=O)(=O)c4cc(C5CC5)cnc4OC)c3F)c(NC)nc2n1

Marked response:
1: ≤ 100 nM; 2: ≤ 100 nM; 3: ≤ 100 nM; 4: 1000 to 10000 nM; 5: ≤ 100 nM; 6: ≤ 100 nM; 7: ≤ 100 nM; 8: ≤ 100 nM

Hi, could you look up IC50 for each item in my list?
1. CNc1ncc2cc(-c3cccc(NS(=O)(=O)c4cc(Cl)cnc4OC)c3F)c(NC)nc2n1
2. CNc1nc2nc(NC(C)=O)ncc2cc1-c1cccc(NS(=O)(=O)c2cc(Cl)cnc2OC)c1F

Marked response:
≤ 100 nM
≤ 100 nM

* * *

Test system: CCRF-CEM leukemia cells
Assay: CCRF-CEM ASNase cell proliferation assay, phenotypic assay for cellular inhibition of GCN2
Format: cell-based
Conditions: Homo sapiens; ASNase treated CCRF-CEM cells, 1 mU/mL ASNase, 72 h
pIC50: −log10 of the molar value.
Quantity Measured: pIC50

Hi, could you look up pIC50 for each item in my list?
1. CNc1cc2nc(C)c(-c3cc(NS(=O)(=O)c4cc(Cl)cnc4OC)cc(F)c3F)cc2cn1
2. CNc1ncc2cc(-c3cccc(NS(=O)(=O)c4cc(OC)ccc4Cl)c3F)c(NC)nc2n1
3. CNc1cc2ncc(-c3cccc(NS(=O)(=O)c4cc(Cl)cnc4OC)c3F)cc2cn1

Marked response:
1. ≥ 7.00
2. 6.30 to 7.00
3. ≥ 7.00

Hi, could you look up pIC50 for each item in my list?
1. CNc1cc2nc(N)c(-c3cccc(NS(=O)(=O)c4cc(Cl)cnc4OC)c3F)cc2cn1
2. CNc1ncc2cc(-c3cc(F)cc(NS(=O)(=O)c4cc(Cl)cnc4OC)c3)c(NC)nc2n1
3. CNc1ncc2cc(-c3c(F)ccc(NS(=O)(=O)c4cc(Cl)cnc4OC)c3F)c(C)nc2n1
4. CNc1cc2nc(C)c(-c3cccc(NS(=O)(=O)c4cc(Cl)cnc4OC)c3Cl)cc2cn1

Marked response:
["≥ 7.00", "6.30 to 7.00", "≥ 7.00", "≥ 7.00"]

* * *

System: ATF4 in CCRF-CEM leukemia cells (PERK)
Test: CCRF-CEM TG ATF4 ELISA, phenotypic assay for cellular inhibition of PERK preactivated by thapsigargin
Assay type: cell-based
Conditions: Homo sapiens; Thapsigargin (1 μM) stimulated CCRF-CEM cells
Quantity Measured: IC50

The following molecules have reported results that may help.
CNc1cc2nc(C)c(-c3cc(F)cc(NS(=O)(=O)c4cc(Cl)cnc4OC)c3)cc2cn1 ... 1000 to 10000 nM
CNc1nc2nc(NC(C)C)ncc2cc1-c1cccc(NS(=O)(=O)c2cc(Cl)cnc2OC)c1F ... 1000 to 10000 nM
CNc1ncc2cc(-c3cccc(NS(=O)(=O)c4cc(Cl)cnc4OC)c3F)c(OC)cc2n1 ... 500 to 1000 nM
CNc1ncc2cc(-c3cc(NS(=O)(=O)c4cc(Cl)cnc4OC)ccc3Cl)c(C)nc2n1 ... 1000 to 10000 nM
CNc1ncc2cc(-c3cc(NS(=O)(=O)c4cc(Cl)cnc4OC)ccc3C)c(C)nc2n1 ... 1000 to 10000 nM

Hi, could you look up IC50 for each item in my list?
1. CNc1cc2nc(C)c(-c3cccc(NS(=O)(=O)c4cc(Cl)cnc4OC)c3Cl)cc2cn1
2. CNc1ncc2cc(-c3cc(NS(=O)(=O)c4cc(Cl)cnc4OC)cc(F)c3F)c(NC)nc2n1
3. COc1ncc(Cl)cc1S(=O)(=O)Nc1cccc(-c2cc3cnc(N)cc3nc2C)c1Cl
4. CNc1ncc2cc(-c3cc(F)cc(NS(=O)(=O)c4cc(Cl)cnc4OC)c3)c(NC)nc2n1
5. CNc1ncc2cc(-c3cccc(NS(=O)(=O)c4cc(Cl)cc(C(=O)OC)c4Cl)c3F)c(NC)nc2n1

Marked response:
500 to 1000 nM
1000 to 10000 nM
100 to 500 nM
1000 to 10000 nM
1000 to 10000 nM

Hi, could you look up IC50 for each item in my list?
1. CNc1ncc2cc(-c3cccc(NS(=O)(=O)c4cc(Cl)cc(CO)c4Cl)c3F)c(NC)nc2n1
2. CNc1cc2nc(NC)c(-c3cccc(NS(=O)(=O)c4cc(Cl)cnc4OC)c3F)cc2cn1
3. CNc1nc2nc(NC3CC3)ncc2cc1-c1cccc(NS(=O)(=O)c2cc(Cl)cnc2OC)c1F
4. CNc1nc2nc(NC(C)=O)ncc2cc1-c1cccc(NS(=O)(=O)c2cc(Cl)cnc2OC)c1F
5. COc1cc2nc(N)ncc2cc1-c1cccc(NS(=O)(=O)c2cc(Cl)cc(CO)c2Cl)c1F
6. COc1nc2nc(N)ncc2cc1-c1cc(F)cc(NS(=O)(=O)c2cc(Cl)cnc2OC)c1

Marked response:
["100 to 500 nM", "1000 to 10000 nM", "1000 to 10000 nM", "1000 to 10000 nM", "≤ 100 nM", "1000 to 10000 nM"]
